Biological target: CBP (Homo sapiens (Human))
Sequence (Q92793 whole entry): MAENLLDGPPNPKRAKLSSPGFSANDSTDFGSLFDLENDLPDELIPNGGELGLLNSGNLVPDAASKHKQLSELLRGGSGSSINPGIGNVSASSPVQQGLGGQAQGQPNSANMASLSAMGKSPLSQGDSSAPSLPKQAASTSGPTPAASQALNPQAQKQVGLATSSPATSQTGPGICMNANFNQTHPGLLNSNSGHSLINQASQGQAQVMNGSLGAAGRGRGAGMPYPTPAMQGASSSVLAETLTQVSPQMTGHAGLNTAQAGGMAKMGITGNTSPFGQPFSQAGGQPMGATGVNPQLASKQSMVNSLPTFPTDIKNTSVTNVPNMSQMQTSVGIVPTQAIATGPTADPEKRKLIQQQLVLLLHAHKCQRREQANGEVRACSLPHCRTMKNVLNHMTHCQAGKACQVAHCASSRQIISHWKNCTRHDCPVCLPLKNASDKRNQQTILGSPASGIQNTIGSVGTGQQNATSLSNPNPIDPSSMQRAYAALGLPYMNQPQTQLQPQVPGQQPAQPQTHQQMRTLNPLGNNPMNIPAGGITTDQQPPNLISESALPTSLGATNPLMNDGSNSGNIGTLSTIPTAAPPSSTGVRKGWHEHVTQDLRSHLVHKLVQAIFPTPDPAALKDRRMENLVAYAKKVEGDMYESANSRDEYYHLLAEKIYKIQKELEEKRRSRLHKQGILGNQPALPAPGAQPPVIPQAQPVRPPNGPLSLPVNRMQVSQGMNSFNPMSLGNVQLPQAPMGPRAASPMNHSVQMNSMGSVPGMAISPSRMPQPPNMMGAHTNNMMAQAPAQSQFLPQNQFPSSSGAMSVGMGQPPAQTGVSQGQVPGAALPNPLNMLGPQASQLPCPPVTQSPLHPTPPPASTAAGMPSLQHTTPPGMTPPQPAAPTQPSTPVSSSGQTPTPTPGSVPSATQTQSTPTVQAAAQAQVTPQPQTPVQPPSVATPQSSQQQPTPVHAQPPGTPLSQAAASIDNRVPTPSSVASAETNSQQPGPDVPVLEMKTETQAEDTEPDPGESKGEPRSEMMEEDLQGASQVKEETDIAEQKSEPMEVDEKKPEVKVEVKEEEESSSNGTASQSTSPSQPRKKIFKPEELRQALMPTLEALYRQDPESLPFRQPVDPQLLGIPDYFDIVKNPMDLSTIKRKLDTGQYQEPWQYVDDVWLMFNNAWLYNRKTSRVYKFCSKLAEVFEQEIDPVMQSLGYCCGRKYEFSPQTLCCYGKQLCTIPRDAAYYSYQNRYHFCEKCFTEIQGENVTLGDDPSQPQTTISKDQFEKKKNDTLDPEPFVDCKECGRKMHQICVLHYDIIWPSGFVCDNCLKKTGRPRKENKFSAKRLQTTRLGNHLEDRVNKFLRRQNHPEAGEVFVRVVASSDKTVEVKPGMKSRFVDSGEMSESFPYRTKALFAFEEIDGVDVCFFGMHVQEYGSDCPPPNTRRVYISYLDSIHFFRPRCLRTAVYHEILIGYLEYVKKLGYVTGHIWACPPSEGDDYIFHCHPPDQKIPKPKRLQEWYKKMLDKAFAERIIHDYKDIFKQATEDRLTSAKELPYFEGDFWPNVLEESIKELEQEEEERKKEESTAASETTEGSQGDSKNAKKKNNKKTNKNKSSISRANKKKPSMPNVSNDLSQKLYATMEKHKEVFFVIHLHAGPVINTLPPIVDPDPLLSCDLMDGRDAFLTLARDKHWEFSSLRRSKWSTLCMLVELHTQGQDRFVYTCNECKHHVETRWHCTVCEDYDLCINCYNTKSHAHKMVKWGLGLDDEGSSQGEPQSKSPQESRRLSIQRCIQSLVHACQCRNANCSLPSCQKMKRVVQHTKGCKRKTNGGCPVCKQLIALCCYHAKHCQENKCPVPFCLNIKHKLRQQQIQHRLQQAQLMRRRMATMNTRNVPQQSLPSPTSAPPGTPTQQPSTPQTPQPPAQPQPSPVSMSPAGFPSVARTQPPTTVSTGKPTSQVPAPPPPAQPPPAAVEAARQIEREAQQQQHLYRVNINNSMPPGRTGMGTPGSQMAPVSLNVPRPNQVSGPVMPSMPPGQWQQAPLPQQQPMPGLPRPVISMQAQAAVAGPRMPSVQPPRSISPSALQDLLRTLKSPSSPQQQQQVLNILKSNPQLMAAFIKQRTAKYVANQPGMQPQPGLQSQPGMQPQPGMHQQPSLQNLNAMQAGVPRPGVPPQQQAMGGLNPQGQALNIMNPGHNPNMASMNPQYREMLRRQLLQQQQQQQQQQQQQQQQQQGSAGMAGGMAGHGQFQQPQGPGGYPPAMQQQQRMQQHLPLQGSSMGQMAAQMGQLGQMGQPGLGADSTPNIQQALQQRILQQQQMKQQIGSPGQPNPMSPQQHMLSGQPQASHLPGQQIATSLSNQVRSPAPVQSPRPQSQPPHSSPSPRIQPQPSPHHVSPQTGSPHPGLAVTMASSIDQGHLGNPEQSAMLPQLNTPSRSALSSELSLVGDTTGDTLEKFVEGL
Test: CBP TR-FRET binding assay;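 also: displacement of a biotinylated small-molecule ligand from purified recombinant CBP read by TR-FRET, DMSO-only wells as control, IC50 from nonlinear curve fit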
Settings: His/Flag tagged CBP 4 nM, biotin-ligand 60 nM; read-out: CBP HTRF IC50
quantity: pIC50
Lab note — pIC50 values are minus log10 of concentrations in M.

These solved cases illustrate the format of a correct answer.
molecule="CNC(=O)c1cn(C)c2c(Cl)cc(N3CCCc4cc(-c5cnn(C)c5)c(C(F)F)cc43)cc12 [Example 54]" quantity=pIC50 value_observed=7.23
molecule="CNC(=O)c1ccc2cccc(N3CCCc4cc(-c5cnn(C)c5)c(C(F)F)cc43)c2n1 [Example 120]" quantity=pIC50 value_observed=8.22
molecule="Cn1cc(-c2cc3c(cc2C(F)F)N(c2cc4c(cn2)n(C)c(=O)n4C)CCC3)cn1 [Example 24]" quantity=pIC50 value_observed=6.97
molecule="CNC(=O)c1c[nH]c2ncc(N3CCCc4cc(-c5cnn(C)c5)c(C(F)F)cc43)cc12 [Example 68]" quantity=pIC50 value_observed=7.82
molecule="CNC(=O)c1cnc2ccc(N3CCCc4cc(-c5cnn(C)c5)c(C(F)F)cc43)nn12 [Example 72]" quantity=pIC50 value_observed=6.96

The recorded pIC50 for entry CNC(=O)c1cn(C)c2ccc(N3CCCc4cc(-c5cnn(C)c5)c(C(F)F)cc43)nc12 [Example 58] equals 8.05

The recorded pIC50 for entry Cn1cc(-c2cc3c(cc2C(F)F)N(c2ccc4c(c2)sc(=O)n4C)CCC3)cn1 [Example 22] equals 5.77
